experiment: Cytotoxicity against MDCK cells after 72 hrs by MTT assay; type: cell-based, Canis lupus familiaris; details: dog
Measured CC50 at 72 h, listed per entry for reference.

Here's what some known entries look like.
{"Compound": "COC(=O)CCc1ccc(OC)c(OC)c1", "CC50 at 72 h": "> 149 µM"}
{"Compound": "COC(=O)Cc1ccc(O)c(O)c1", "CC50 at 72 h": "> 170 µM"}
{"Compound": "OCc1ccc(O)c(O)c1", "CC50 at 72 h": "> 143 µM"}
{"Compound": "COC(=O)[C@H](Cc1ccccc1)NC(=O)c1ccc(O)c(O)c1", "CC50 at 72 h": "> 106 µM"}
{"Compound": "COC(=O)[C@H](CC(C)C)NC(=O)Cc1ccc(O)c(O)c1", "CC50 at 72 h": "> 183 µM"}
{"Compound": "NC12CC3CC(CC(C3)C1)C2 [AMANTADINE]", "CC50 at 72 h": "219 µM"}
{"Compound": "COC(=O)[C@H](Cc1ccccc1)NC(=O)Cc1ccc(O)c(O)c1", "CC50 at 72 h": "> 170 µM"}
{"Compound": "COC(=O)c1ccc(O)c(O)c1 [METHYL PROTOCATECHUATE]", "CC50 at 72 h": "> 183 µM"}
{"Compound": "CC(C)OC(=O)Cc1ccc(O)c(O)c1", "CC50 at 72 h": "> 149 µM"}
{"Compound": "CC(=O)N[C@H]1[C@H]([C@H](O)[C@H](O)CO)OC(C(=O)O)=C[C@@H]1NC(=N)N [ZANAMIVIR]", "CC50 at 72 h": "> 100 µM"}

Ask: // lookup CC50 at 72 h for "CC(C)OC(=O)c1ccc(O)c(O)c1"
Result: > 159 µM

Ask: Recorded CC50 at 72 h for "CCOC(=O)c1ccc(O)c(O)c1" , please?
Result: > 170 µM

Ask: Can you look up the measured CC50 at 72 h of "CCOC(=O)CCc1ccc(O)c(O)c1" for me?
Result: > 216 µM

Ask: Could you tell me which CC50 at 72 h is on file for "COC(=O)Cc1ccc(OC)c(OC)c1" ?
Result: > 159 µM

Ask: Reported CC50 at 72 h, compound "COC(=O)CCc1ccc(O)c(O)c1" : ____
Result: > 238 µM

Ask: Which CC50 at 72 h is listed for "COC(=O)[C@H](CC(C)C)NC(=O)c1ccc(O)c(O)c1" ?
Result: > 119 µM

###

Entries and their CC50 at 72 h values follow.
test: Cytotoxicity against MDCK cells after 72 hrs by MTT assay; format: cell-based, Canis lupus familiaris; conditions: dog

Would you please look over these solved cases?
{"Chemical Structure": "CC(C)OC(=O)CCc1ccc(O)c(O)c1", "CC50 at 72 h": "> 198 µM"}
{"Chemical Structure": "CCOC(=O)Cc1ccc(O)c(O)c1", "CC50 at 72 h": "> 159 µM"}

Ask: So what does the record say about CC50 at 72 h for "COC(=O)c1ccc(OC)c(OC)c1" ?
Result: > 170 µM
